Test system: HCT-116 colon
Experiment: NCI tumour cell line growth inhibition, 48 h

compound: COc1ccc2nc3ccccc3c(NCCN(C)CCCl)c2c1
TGI: 2.63 µM

compound: COc1ccc(CCn2c3c(c4c(O)cccc42)C(=O)c2ccccc2-3)cc1OC
TGI: > 57.5 µM

compound: O=[N+]([O-])O
TGI: > 100 µM

compound: CCC/C=C/C=C/C(=O)OC1C(C)C2(O)C3C=C(C)C(=O)C3CC(COC(C)=O)=CC2C2C(C)(C)C12OC(=O)C(C)C (configuration not stated)
TGI: 26.8 µM

compound: S=C(/C=C1\SC(=Nc2ccccc2)C(=Nc2ccccc2)N1c1ccccc1)Nc1ccccc1
TGI: > 100 µM

compound: CC(=O)C(C)CCOC1(C)OCCC1C (configuration not stated)
TGI: > 100 µM

compound: O=C(c1ccccc1)C(C(=O)c1ccccc1)c1nc2ccccc2sc1=O
TGI: > 25 µM

compound: O=C(N=Nc1c(O)[nH]c2c(Cl)cc(Cl)cc12)c1ccccc1O
TGI: 27.3 µM

compound: O=C(O)C1(c2ccccc2)CCCNCC1 (configuration not stated)
TGI: > 100 µM

compound: CCC12CCCN3CCc4c(n(c5ccccc45)C(O)(C(=O)OC)C1)C32 (configuration not stated)
TGI: > 100 µM

compound: N#C/C(=N/Nc1nc[nH]c1C(N)=O)C(=O)Nc1ccccc1
TGI: > 100 µM

compound: Cc1c(-c2ccccc2)c(C#N)c2nnn(-c3ccc([N+](=O)[O-])cc3)c(=O)n12
TGI: > 100 µM

compound: C/C(=N\NC(=O)Nc1ccccc1Cl)c1ccc(O)cc1
TGI: > 100 µM

compound: O=C(N/N=C(/COc1ccccc1Cl)N=Cc1cccnc1)c1ccncc1
TGI: > 100 µM

compound: NC(N)=NS(=O)(=O)c1ccc(Nc2c3ccccc3nc3c(C(=O)NNCCO)cccc23)cc1
TGI: 0.354 µM

compound: CC(=O)CC1(OC(=O)C2C(C=C(C)C)C2(C)C)C(=O)Nc2ccccc21 (configuration not stated)
TGI: > 100 µM

compound: OC1CCN(c2c3ccccc3nc3ccccc23)CC1
TGI: > 100 µM

compound: O=C(NCCCCNC(=O)OCc1ccc2c(Cl)cc(Cl)c(O)c2n1)OCc1ccc2c(Cl)cc(Cl)c(O)c2n1
TGI: > 100 µM

compound: NC(=O)SCC(=O)Nc1ccc2cccc3c2c1CC3
TGI: 36 µM

compound: C=CN1CCN(c2ccccc2)P1(=O)Oc1ccccc1 (configuration not stated)
TGI: > 100 µM

compound: O=C1c2ccccc2-c2c1c(-c1ccc(O)cc1O)nc1ccc3ccccc3c21
TGI: > 100 µM

compound: COc1cc2c(c(OC)c1OC)-c1cccc(=O)cc1C(NC(C)=O)CC2 (configuration not stated)
TGI: 25.6 µM

###

// reported GI50 for each item listed
Test system: OVCAR-3 ovarian
Experiment: NCI tumour cell line growth inhibition, 48 h

compound: CCCCCCCCc1ccc(OCCOCC[N+](C)(C)CC)cc1 (tested in a mixture with another compound)
GI50: 2790 nM

compound: Cc1cc(C)c(-c2cc(O)c(-c3c(C)cc(C)cc3C)cc2O)c(C)c1
GI50: 2050 nM

compound: C=Cc1ccccc1 (tested in a mixture with another compound)
GI50: > 75 µg/mL

compound: COc1ccc(/C=C/c2nnc(/C=C/c3ccc(OC)c(OC)c3)o2)cc1OC
GI50: 5010 nM

Cited source: PubChem BioAssay (NCI)
